assayed-system: human TLR8 (Homo sapiens, UniProt Q9NR97)
Sequence (Q9NR97 27-1041): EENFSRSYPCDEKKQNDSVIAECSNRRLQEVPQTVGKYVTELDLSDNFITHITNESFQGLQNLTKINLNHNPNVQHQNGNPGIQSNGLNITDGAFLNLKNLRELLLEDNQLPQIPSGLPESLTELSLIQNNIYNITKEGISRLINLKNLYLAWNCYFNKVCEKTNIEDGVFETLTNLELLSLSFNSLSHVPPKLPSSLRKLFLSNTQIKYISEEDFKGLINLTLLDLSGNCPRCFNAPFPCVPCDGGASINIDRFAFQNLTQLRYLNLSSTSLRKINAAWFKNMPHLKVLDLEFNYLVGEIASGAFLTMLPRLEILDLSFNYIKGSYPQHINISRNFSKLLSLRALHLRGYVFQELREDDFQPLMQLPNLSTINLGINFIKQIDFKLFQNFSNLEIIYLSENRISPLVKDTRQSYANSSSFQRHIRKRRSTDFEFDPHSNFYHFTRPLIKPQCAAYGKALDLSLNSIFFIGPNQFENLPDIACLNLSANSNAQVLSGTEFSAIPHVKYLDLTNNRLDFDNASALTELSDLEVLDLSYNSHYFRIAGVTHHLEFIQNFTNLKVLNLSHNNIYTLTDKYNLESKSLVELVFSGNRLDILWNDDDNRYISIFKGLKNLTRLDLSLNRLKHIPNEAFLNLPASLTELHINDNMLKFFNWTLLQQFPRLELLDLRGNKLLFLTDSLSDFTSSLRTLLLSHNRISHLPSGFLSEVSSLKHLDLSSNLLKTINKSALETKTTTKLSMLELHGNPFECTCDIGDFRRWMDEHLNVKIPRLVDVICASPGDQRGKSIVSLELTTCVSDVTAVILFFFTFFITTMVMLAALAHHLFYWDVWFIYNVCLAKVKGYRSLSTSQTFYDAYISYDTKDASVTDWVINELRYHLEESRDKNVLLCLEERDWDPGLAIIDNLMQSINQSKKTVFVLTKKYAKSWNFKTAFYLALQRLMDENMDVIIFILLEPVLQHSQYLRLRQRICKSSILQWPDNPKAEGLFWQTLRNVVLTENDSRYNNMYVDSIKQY
assay-summary: TLR8 inhibition reporter assay (HEK-Blue SEAP)
stated-conditions: HEK-Blue cells overexpressing human TLR8, R848 15.9 μM, 22 hour incubation
pIC50: −log10 of the molar value.
measured-attribute: pIC50

# count of solved cases: 2
compound	obs-value
CCC(CC)CN[C@H]1CC[C@@H](n2c(=O)[nH]c3cc(-c4cn5ncnc5c(C)c4C)c(C(C)C)cc32)CC1	9.82
COc1cc(-c2ccc3c(c2)[nH]c(=O)n3C2CCN(C3CCC3)CC2)cn2ncnc12	5.90

[I] COc1cc(-c2cc3[nH]c(=O)n(C4CCC(N5CCC6(CC5)COC6)CC4)c3cc2C(C)C)cn2ncnc12 (stereo not shown) [Example 239]
[II] COc1cc(-c2cc3[nH]c(=O)n([C@H]4CC[C@@H](N(C)C)CC4)c3cc2C(C)C)cn2ncnc12
[in] Would you mind telling me which has the lower recorded pIC50 between I and II ? The response must carry the label of the picked entry.
[out] II
(II: 9.24, I: 9.68)
